Cited source: patent US20230113037A1

Target: AHR (Mus musculus)
Sequence (P30561 1-848 P471L/N533S/M589L): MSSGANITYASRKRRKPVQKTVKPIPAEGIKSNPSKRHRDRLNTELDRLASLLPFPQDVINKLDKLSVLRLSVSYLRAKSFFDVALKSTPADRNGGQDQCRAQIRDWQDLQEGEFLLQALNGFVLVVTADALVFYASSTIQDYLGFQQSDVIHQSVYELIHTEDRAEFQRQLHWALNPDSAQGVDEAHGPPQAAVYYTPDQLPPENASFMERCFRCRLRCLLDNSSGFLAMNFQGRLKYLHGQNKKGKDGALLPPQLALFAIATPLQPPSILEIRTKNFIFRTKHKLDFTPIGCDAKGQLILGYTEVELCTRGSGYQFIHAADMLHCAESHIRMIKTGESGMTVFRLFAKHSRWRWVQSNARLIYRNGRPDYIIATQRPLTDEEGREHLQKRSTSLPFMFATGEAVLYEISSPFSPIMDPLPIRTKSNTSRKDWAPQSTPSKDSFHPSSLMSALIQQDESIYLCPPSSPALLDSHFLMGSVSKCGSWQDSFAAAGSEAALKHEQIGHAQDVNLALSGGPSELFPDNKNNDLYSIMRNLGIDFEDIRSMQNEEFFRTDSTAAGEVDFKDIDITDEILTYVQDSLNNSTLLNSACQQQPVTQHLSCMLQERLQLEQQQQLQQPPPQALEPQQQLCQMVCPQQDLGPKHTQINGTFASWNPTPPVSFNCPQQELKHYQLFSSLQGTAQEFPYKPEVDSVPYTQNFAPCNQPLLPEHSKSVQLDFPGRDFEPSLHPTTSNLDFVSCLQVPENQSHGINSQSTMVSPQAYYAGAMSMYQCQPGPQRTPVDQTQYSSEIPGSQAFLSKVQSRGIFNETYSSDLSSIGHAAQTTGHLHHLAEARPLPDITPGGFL
Experiment: In vitro assay 3: antagonism in mouse cell line (AHR transactivation, firefly luciferase reporter, kynurenic acid prestimulated)
Format: cell-based
Conditions: mouse Hepa 1c1c7 cells, 200 μM kynurenic acid, 20 hours, read-out: AHR Antagonism Mouse IC50
Field: label. Allowed values: criterion met (IC50 < 30 nM) or criterion not met (IC50 >= 30 nM).

Use the examples below as a reference point.
Cn1cc(-c2nc3c4c(C(F)(F)F)cccc4nc(N[C@@H]4CCCCNC4=O)n3n2)cn1
criterion not met
COc1ccc(-c2nc3c4ccc(OC)cc4nc(N[C@@H]4CCCCNC4=O)n3n2)cc1
criterion not met
Cc1ccccc1-c1nc2c3ccccc3nc(NC3CCNC3=O)n2n1 (single isomer, unassigned) [Example 50]
criterion met
O=C1NCCCC[C@H]1Nc1nc2ccccc2c2nc(-c3cncnc3)nn12
criterion not met
CC[C@@H](Nc1nc2ccccc2c2nc(-c3ccc(OC)cc3OC(F)(F)F)nn12)C(N)=O
criterion met

**Q:** IC50 under 30 nM? Item: COc1cccc(-c2nc3c4ccccc4nc(N[C@H](CC(C)C)C(=O)O)n3n2)c1
**A:** criterion not met

**Q:** IC50 under 30 nM? Item: O=C1NCCC[C@H]1Nc1nc2ccccc2c2nc(-c3ccccc3Br)nn12
**A:** criterion not met

**Q:** IC50 under 30 nM? Item: Cn1cc(-c2nc3c4ccccc4nc(NC4CNCCNC4=O)n3n2)cn1 (racemic) [Example 22]
**A:** criterion not met

**Q:** IC50 under 30 nM? Item: O=C1NCCCC[C@@H]1Nc1nc2ccccc2c2nc(-c3cnccn3)nn12
**A:** criterion not met

---

Give measured IC50 for each item. Keep answers brief.
target: AHR (Mus musculus); assay: In vitro assay 3: antagonism in mouse cell line (AHR transactivation, firefly luciferase reporter, kynurenic acid prestimulated); assay type: cell-based; settings: read-out: AHR Antagonism Mouse IC50, mouse Hepa 1c1c7 cells, 200 μM kynurenic acid, 20 hours
Answers are plain numbers, in nM.

As a guide, the following entries are already answered.
CC[C@H](Nc1nc2c(Br)cccc2c2nc(-c3ccc(OC)cc3OC(F)(F)F)nn12)C(N)=O
29.9
O=C1NCCCC[C@H]1Nc1nc2ccccc2c2nc(-c3cc(C(F)(F)F)ccn3)nn12
10.7
N#Cc1cccc2c1nc(N[C@@H]1CCCCNC1=O)n1nc(-c3cn[nH]c3)nc21
5850

// switching to the query compound
Recorded result, COc1cccc(-c2nc3c4c(C)cccc4nc(NC4CCNC4=O)n3n2)c1 (single isomer, unassigned) [Example 191] , IC50: 1090

---

Give measured log10(IC50) for each item. Keep answers brief.
biological target: AHR (Homo sapiens, UniProt P35869); construct: U87 MG glioblastoma cells (ATCC #HTB-14) endogenously expressing AHR; endogenous in cells; host or cells: U87 MG glioblastoma cells (ATCC #HTB-14); experiment: In vitro assay 1: antagonism in human cell line (AHR transactivation, firefly luciferase reporter, kynurenic acid prestimulated); type: cell-based; settings: AHR Antagonism Human IC50 [M]
Values are log10 of IC50 in M.

Cn1cc(-c2nc3c4c(C(F)(F)F)cccc4nc(N[C@@H]4CCCCNC4=O)n3n2)cn1
-7.14
N#Cc1cccc2nc(N[C@@H]3CCCCNC3=O)n3nc(-c4cccc(F)c4)nc3c12
-7.53
COc1ccc(-c2nc3c4c(Br)cccc4nc(N[C@@H]4CCCCNC4=O)n3n2)cc1
-8.61
COc1cccc(-c2nc3c4ccccc4nc(N[C@H](C)C(=O)NCCCO)n3n2)c1
-7.42
CC[C@@H](Nc1nc2ccccc2c2nc(-c3ccncc3F)nn12)C(N)=O
-7.04
COc1ccc(-c2nc3c4ccc(F)cc4nc(N[C@@H]4CCCCNC4=O)n3n2)cc1
-9.36
CC[C@@H](Nc1nc2ccccc2c2nc(-c3cccc(OC)c3)nn12)C(N)=O
-8.68
COc1ccc(-c2nc3c4cccc(N5CCOCC5)c4nc(N[C@@H]4CCCCNC4=O)n3n2)cc1
-6.99
CC[C@@H](Nc1nc2ccccc2c2nc(-c3ccc(OC)cc3C(F)(F)F)nn12)C(N)=O
-7.50
COc1ccc(-c2nc3c4ccccc4nc(N[C@@H]4CCCCNC4=O)n3n2)cc1
-9.39

Please state, for each entry, its recorded log10(IC50).
1. Cc1ccccc1-c1nc2c3ccccc3nc(NC3CNCCNC3=O)n2n1 (centres unmarked) [Example 45]
2. CC[C@@H](Nc1nc2ccccc2c2nc(-c3ccccc3OC(F)F)nn12)C(N)=O

**A:**
1. -7.92
2. -8.41

Please state, for each entry, its recorded log10(IC50).
1. COc1ccc(-c2nc3c4cccc(OC)c4nc(N[C@@H]4CCCCNC4=O)n3n2)cc1
2. COc1cccc(-c2nc3c4c(C)cccc4nc(N[C@H]4CCCCNC4=O)n3n2)c1
3. Cc1cc(-c2nc3c4ccccc4nc(N[C@@H]4CCNC4=O)n3n2)cs1
4. O=C1NCCNC[C@H]1Nc1nc2ccccc2c2nc(-c3ccc(Br)o3)nn12
5. CC(C)Oc1ccc(-c2nc3c4ccccc4nc(N[C@@H]4CCCCNC4=O)n3n2)cc1

**A:**
-8.67
-6.47
-7.57
-7.08
-8.93

---

target: AHR (Homo sapiens); construct: U87 MG glioblastoma cells (ATCC #HTB-14) endogenously expressing AHR; endogenous in cells; host or cells: U87 MG glioblastoma cells (ATCC #HTB-14); test: In vitro assay 1: antagonism in human cell line (AHR transactivation, firefly luciferase reporter, kynurenic acid prestimulated); assay type: cell-based; conditions: AHR Antagonism Human IC50 [M]
reportedEndpoint: log10 of IC50 (log10 of the value in M)
Values are log10 of IC50 in M.

As a guide, the following entries are already answered.
COc1ccc(-c2nc3c4cccc(OC)c4nc(N[C@@H]4CNCCNC4=O)n3n2)cc1
-6.62
CC(C)n1cc(-c2nc3c4cccc(C#N)c4nc(N[C@@H]4CCCCNC4=O)n3n2)cn1
-8.44
CCOc1ccccc1-c1nc2c3ccccc3nc(N[C@@H]3CCCCNC3=O)n2n1
-5.74
CC(C)Oc1ccc(-c2nc3c4ccccc4nc(N[C@@H]4CNCCNC4=O)n3n2)cc1
-7.73
Cn1cc(-c2nc3c4c(C5CC5)cccc4nc(N[C@@H]4CCCCNC4=O)n3n2)cn1
-6.13

Please state, for each entry, its recorded log10 of IC50.
1. COc1ccc2nc(N[C@@H]3CCCCNC3=O)n3nc(-c4ccc(F)cc4)nc3c2c1
2. CS(=N)(=O)c1cccc(-c2nc3c4ccccc4nc(N[C@@H]4CCCCNC4=O)n3n2)c1 (single isomer, unassigned) [Example 660]

**A:**
1: -8.05; 2: -6.07

---

Give measured IC50 for each item. Keep answers brief.
Target: AHR (Homo sapiens)
Construct: U87 MG glioblastoma cells (ATCC #HTB-14) endogenously expressing AHR; endogenous in cells; host or cells: U87 MG glioblastoma cells (ATCC #HTB-14)
Sequence (P35869 11-848): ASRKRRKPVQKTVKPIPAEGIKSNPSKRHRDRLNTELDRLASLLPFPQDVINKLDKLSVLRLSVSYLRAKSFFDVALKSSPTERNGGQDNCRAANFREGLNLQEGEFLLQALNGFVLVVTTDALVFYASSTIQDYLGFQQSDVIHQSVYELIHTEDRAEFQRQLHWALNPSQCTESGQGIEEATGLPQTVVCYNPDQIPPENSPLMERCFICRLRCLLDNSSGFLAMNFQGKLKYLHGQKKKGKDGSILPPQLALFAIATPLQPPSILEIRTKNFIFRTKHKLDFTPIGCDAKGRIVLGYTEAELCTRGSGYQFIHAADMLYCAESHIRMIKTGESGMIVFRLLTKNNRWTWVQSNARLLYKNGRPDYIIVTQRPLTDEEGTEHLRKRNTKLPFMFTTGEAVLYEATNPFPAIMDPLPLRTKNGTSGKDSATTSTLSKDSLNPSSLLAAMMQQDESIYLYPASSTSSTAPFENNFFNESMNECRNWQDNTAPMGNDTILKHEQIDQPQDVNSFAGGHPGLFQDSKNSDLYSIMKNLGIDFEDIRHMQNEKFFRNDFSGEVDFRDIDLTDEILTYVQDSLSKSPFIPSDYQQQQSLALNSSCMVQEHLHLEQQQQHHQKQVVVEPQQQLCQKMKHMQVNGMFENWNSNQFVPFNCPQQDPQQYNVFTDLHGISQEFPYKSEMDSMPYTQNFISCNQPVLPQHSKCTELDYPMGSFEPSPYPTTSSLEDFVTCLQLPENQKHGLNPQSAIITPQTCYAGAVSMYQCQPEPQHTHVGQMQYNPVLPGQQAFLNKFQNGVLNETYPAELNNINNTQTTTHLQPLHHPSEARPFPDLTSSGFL
Assay: In vitro assay 1: antagonism in human cell line (AHR transactivation, firefly luciferase reporter, kynurenic acid prestimulated)
Assay type: cell-based
Details: AHR Antagonism Human IC50 [M]
Description: Examples were tested in selected biological assays one or more times. […] Firefly luciferase and Renilla activity was determined by the DualGlo Luciferase Assay System (Promega, #2920). […]
One number for each entry, in M.

COc1ccc(-c2nc3c4cccc(C5(C(F)(F)F)CC5)c4nc(N[C@@H]4CNCCNC4=O)n3n2)cc1 [Example 431]
1.43e-08

Please state, for each entry, its recorded IC50.
1. CC[C@@H](Nc1nc2ccccc2c2nc(-c3ccc(S(C)(=O)=O)cc3)nn12)C(N)=O [Example 376]
2. O=C1NCCCC[C@H]1Nc1nc2ccccc2c2nc(-c3ccc(F)c(F)c3)nn12 [Example 633]
3. COc1ccc(-c2nc3c4ccccc4nc(N[C@@H]4CNCCNC4=O)n3n2)cc1OC [Example 409]
4. O=C1NCCNC[C@H]1Nc1nc2c(C(F)(F)F)cccc2c2nc(-c3ccc(F)cc3)nn12 [Example 423]

**A:**
1: 1.61e-08; 2: 1.14e-09; 3: 6.98e-08; 4: 2.81e-10
